molecular target: GST-tagged FvTox1 (Fusarium virguliforme); experiment: pull-down; purified His-tagged peptides/fusion proteins mixed with GST-tagged FvTox1, pulled down with glutathione resin; western blot with anti-His antibody; relative percent pulled down, two independent experiments
Label key: class 1 means percent peptide pulled down by FvTox1 (relative binding strength) under 4 percent; class 0 means percent peptide pulled down by FvTox1 (relative binding strength) of 4 percent or more.

Examples from the recorded data:
[[record]]
binder = "GGGGSGGGGSGGGGSVENKTRYHDREVGGGGS [synthetic FvTox1-interacting peptide 2 (His-tagged, expressed in E. coli)]"
classification = "class 0"

[[record]]
binder = "GGGGSGGGGSGGGGSHEGAWHNYARSVGGGGS [synthetic FvTox1-interacting peptide 3 (His-tagged, expressed in E. coli)]"
classification = "class 1"

[[record]]
binder = "synthetic FvTox1-interacting fusion peptide 6 (PEP3-PEP4; His-tagged, expressed in E. coli) (designed binder) GGGSGGGGSGGGGSHEGAWHNYARSVGGGGSELGGGGSGGGGSGGGGSSNGRVADGGGGS"
classification = "class 0"

[[record]]
binder = "synthetic FvTox1-interacting fusion peptide 5 (PEP1-PEP2; His-tagged, expressed in E. coli) (designed binder) GGGGSGGGGSGGGGSSYLPETIYEYRLGGGGSELGGGGSGGGGSGGGGSVENKTRYHDREVGGGGS"
classification = "class 0"

[[record]]
binder = "synthetic FvTox1-interacting fusion peptide 8 (PEP1-PEP2-PEP4; His-tagged, expressed in E. coli) (designed binder) GGGGSGGGGSGGGGSSYLPETIYEYRLGGGGSELGGGGSGGGGSGGGGSVENKTRYHDREVGGGGSLEGGGGSGGGGSGGGGSSNGRVADGGGGS"
classification = "class 0"

[[record]]
binder = "synthetic FvTox1-interacting fusion peptide 9 (PEP1-PEP2-PEP3-PEP4; His-tagged, expressed in E. coli) (designed binder) GGGGSGGGGSGGGGSSYLPETIYEYRLGGGGSELGGGGSGGGGSGGGGSVENKTRYHDREVGGGGSLEGGGGSGGGGSGGGGSHEGAWHNYARSVGGGGSGTGGGGSGGGGSGGGGSSNGRVADGGGGS"
classification = "class 0"


Field: below-cutoff. Rule: recorded percent peptide pulled down by FvTox1 (relative binding strength) strictly less than 4 percent. Subject: GGGGSGGGGSGGGGSSNGRVADGGGGS [synthetic FvTox1-interacting peptide 4 (His-tagged, expressed in E. coli)]
class 1

Field: below-cutoff. Rule: recorded percent peptide pulled down by FvTox1 (relative binding strength) strictly less than 4 percent. Subject: synthetic FvTox1-interacting fusion peptide 7 (PEP1-PEP2-PEP3; His-tagged, expressed in E. coli) (designed binder) GSGGGGSGGGGSGGGGSSYLPETIYEYRLGGGGSELGGGGSGGGGSGGGGSVENKTRYHDREVGGGGSLEGGGGSGGGGSGGGGSHEGAWHNYARSVGGGGS
class 0
